Biological target: MERTK (UniProt Q12866)
Sequence (Q12866 whole entry, looked up): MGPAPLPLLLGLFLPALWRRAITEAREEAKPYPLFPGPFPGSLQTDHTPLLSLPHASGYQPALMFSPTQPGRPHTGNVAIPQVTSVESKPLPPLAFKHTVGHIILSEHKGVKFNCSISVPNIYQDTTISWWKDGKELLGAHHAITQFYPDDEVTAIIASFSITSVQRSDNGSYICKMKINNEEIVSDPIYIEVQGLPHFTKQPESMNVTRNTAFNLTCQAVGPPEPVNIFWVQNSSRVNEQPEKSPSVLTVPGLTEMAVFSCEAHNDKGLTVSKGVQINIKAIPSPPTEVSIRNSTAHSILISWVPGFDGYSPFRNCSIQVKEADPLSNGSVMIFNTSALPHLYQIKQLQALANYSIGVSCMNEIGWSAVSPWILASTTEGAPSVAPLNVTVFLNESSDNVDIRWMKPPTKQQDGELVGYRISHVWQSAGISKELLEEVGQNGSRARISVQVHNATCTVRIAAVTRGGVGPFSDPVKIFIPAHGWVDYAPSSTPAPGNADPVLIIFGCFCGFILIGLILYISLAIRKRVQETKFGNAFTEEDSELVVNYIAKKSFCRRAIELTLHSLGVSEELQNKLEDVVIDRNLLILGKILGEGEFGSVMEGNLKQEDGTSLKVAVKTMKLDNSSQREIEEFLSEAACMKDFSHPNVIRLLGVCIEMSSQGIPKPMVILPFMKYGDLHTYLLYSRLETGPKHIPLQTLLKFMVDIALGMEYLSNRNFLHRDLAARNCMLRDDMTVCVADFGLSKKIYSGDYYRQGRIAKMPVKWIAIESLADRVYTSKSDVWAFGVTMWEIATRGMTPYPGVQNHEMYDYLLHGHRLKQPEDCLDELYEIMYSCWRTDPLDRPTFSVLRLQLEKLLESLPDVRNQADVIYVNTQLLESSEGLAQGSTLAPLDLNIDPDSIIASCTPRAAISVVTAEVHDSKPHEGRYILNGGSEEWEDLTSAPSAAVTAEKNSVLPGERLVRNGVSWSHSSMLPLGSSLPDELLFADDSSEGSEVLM
Experiment: phosphorylation enrichment, bacterial display (enrichment ratio); higher = better substrate or ligand; peptides without Tyr show the background;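 note: 11-residue human phosphosite peptides and single-mutation variants displayed on the E. coli surface, counted by deep sequencing, each peptide's frequency after selection divided by its frequency in the unselected input library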;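 note: frequency after pTyr selection over input frequency; kinase dosed for 20-30% of maximal phosphorylation in three min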
Listed next: entries and their corresponding phosphorylation enrichment.
Number only, please.

Examples from the recorded data:
TENAGYYFRIS : 0.433
KILTHYKQPHT [KMT2D_Y5349_R5351Q] : 0.506
CSRCFYQLTKL [AR_Y858_R856C] : 0.55

Input: Request body: readout phosphorylation enrichment, system MERTK (UniProt Q12866), query SHMVDYQPYRK [TEX37_Y25] . Return the value.
Output: 0.575

Input: Request body: readout phosphorylation enrichment, system MERTK (UniProt Q12866), query NQDRTYYERVR [SPEN_Y632_S635R] . Return the value.
Output: 0.452

Input: Request body: readout phosphorylation enrichment, system MERTK (UniProt Q12866), query ETLLFYGFRRS [POR_Y564_C566Y_YF] . Return the value.
Output: 0.631

Input: Request body: readout phosphorylation enrichment, system MERTK (UniProt Q12866), query PLDGEYFILQI [TP53_Y327_T329I] . Return the value.
Output: 1.22

Input: Request body: readout phosphorylation enrichment, system MERTK (UniProt Q12866), query QNTADYFDLFG [PTPN11_Y62_G60A_YF] . Return the value.
Output: 0.691
